biological target: BACE-1 (Homo sapiens); construct: host or cells: insect cells; test: BACE-1 inhibition, fluorescence resonance energy transfer (FRET) assay; type: biochemical; settings: BACE-1 FRET assay, 20 μg/mL
Sequence (P56817 46-501): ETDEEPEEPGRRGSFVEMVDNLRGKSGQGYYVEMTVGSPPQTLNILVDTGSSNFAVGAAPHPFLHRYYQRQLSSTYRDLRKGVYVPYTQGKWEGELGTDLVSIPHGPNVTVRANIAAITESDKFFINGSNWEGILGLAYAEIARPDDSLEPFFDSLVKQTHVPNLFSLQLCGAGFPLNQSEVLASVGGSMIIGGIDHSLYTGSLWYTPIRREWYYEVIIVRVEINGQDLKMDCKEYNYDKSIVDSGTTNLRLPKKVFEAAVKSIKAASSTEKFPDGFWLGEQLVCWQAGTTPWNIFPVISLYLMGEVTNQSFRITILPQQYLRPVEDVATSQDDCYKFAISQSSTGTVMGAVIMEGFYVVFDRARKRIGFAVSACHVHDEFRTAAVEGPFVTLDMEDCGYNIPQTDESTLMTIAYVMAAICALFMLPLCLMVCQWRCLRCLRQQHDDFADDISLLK
metric_name: inhibition at 20 µg/mL (%)

NC1=NN=C(c2cc(NC(=O)c3ccc(C(F)(F)F)cc3)ccc2OCc2ccccc2)CS1
46.9
Nc1nc(-c2cc(NC(=O)Cc3ccccc3)ccc2OCc2ccccc2)cs1
8.9
Nc1nc(-c2cc(NC(=O)c3cccc4ccccc34)ccc2OCc2ccccc2)cs1
55.3
COc1ccc(C(=O)Nc2ccc(OCc3ccccc3)c(-c3coc(N)n3)c2)cc1
34.4
Nc1nc(-c2cc(NC(=O)CCc3ccccc3)ccc2OCc2ccccc2)cs1
3.1
Nc1nc(-c2cc(NC(=O)c3cccc4ccccc34)ccc2OCc2ccccc2)co1
42.6
Br.NC1=NN=C(c2cc(NC(=O)c3ccccc3)ccc2OCc2ccccc2)CS1
64.2
Br.NC1=NN=C(c2cc(NC(=O)c3ccc(Cl)cc3)ccc2OCc2ccccc2)CS1
76
Nc1nc(-c2cc(NC(=O)c3ccccc3)ccc2OCc2ccccc2)cs1
29.3
Nc1nc(-c2cc(NC(=O)c3ccc(Cl)cc3)ccc2OCc2ccccc2)co1
49.9

(a) COc1ccc(C(=O)Nc2ccc(OCc3ccccc3)c(-c3csc(N)n3)c2)cc1
(b) Nc1nc(-c2cc(NC(=O)c3ccc(C(F)(F)F)cc3)ccc2OCc2ccccc2)co1
(c) Nc1nc(-c2cc(NC(=O)c3ccc(Cl)cc3)ccc2OCc2ccccc2)cs1
(d) Br.COc1ccc(C(=O)Nc2ccc(OCc3ccccc3)c(C3=NN=C(N)SC3)c2)cc1
(e) Nc1nc(-c2cc(NC(=O)Cc3cccc4ccccc34)ccc2OCc2ccccc2)cs1
Exercise: Arrange items by their inhibition at 20 µg/mL values in increasing order. Dear reader, please state the labels in the requested order.
Key: e, c, a, b, d
(e: 11.3%, c: 20.4%, a: 29.5%, b: 47.5%, d: 84.9%)
